test: small-molecule microarray binders of probe aXIP, primary screen, biochemical, NeuroSMM set, 635/667 nm fluorescence (AID 1119); conditions: higher = more signal, called active from +8 up or from −8 down;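 also: probe is the protein aXip251-270 applied at 1 µg/mL to compound-printed slides; binding of probe to printed compounds measured as 667 nm fluorescence plus signal to noise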
Calls of active or inactive are those of the source.
composite Z-score reference
MEASUREMENT_KIND: composite Z-score

1) C=CCC(OC(C)=O)[C@@H]1[C@@H](N(Cc2ccc(-c3ccccc3)cc2)C(=O)Cc2ccc(OC)cc2)c2cc(OCCCO)ccc2N1C(=O)Cc1ccc2ccccc2c1 (some centres undefined) : 0.142 (inactive)
2) NC(=O)NCC#Cc1ccc2c(c1)[C@]1(C(=O)N2)[C@H](C(N)=O)[C@H]2C(=O)O[C@H](c3ccccc3)[C@H](c3ccccc3)N2[C@@H]1c1ccc(O)cc1 : 1.42 (inactive)
3) COC(=O)[C@@]1(Cc2ccc(F)cc2)[C@H]2c3cc(C(=O)N4CCCC4)n(CCCNc4ncc(C(F)(F)F)cc4Cl)c3C[C@H]2CN1C(=O)c1ccccc1 : -0.585 (inactive)
4) COCCCNC(=O)[C@@]1(C)c2ccccc2C(=O)N(C(C)C)[C@H]1c1ccc(CO)cc1 : 0.466 (inactive)
